experimentalDetails: CellTiter-Glo cell viability assay in Hela cells
Type: cell-based
measurementConditions: human, 72 h exposure
observedProperty: CC50 at 72 h (µM)
Answers are plain numbers, in µM.

Reported CC50 at 72 h, compound `CCCCOc1c(C(=O)c2c(F)cc(C)cc2F)c[nH]c2nncc1-2` : ____
189

====

experimentalDetails: CellTiter-Glo cell viability assay in Vero cells
Assay type: cell-based, African green monkey
measurementConditions: African green monkey, 72 h exposure
observedProperty: CC50 at 72 h (µM)
Give bare numbers, in µM.

Record excerpt, results attached:
CCN1CCN(Cc2ccc(Nc3ncc(F)c(-c4cc(F)c5nc(C)n(C(C)C)c5c4)n3)nc2)CC1 | 29.1
CC[C@H](CO)Nc1nc(NCc2ccccc2)c2ncn(C(C)C)c2n1 | 18.5
CCc1cnn2c(NCc3ccc[n+]([O-])c3)cc(N3CCCC[C@H]3CCO)nc12 | 1.13
COC(=O)[C@]1(Cc2ccc(O)c(CC=C(C)C)c2)OC(=O)C(O)=C1c1ccc(O)cc1 | 151
Cc1n[nH]c2ncc(C(=O)N3CCC[C@H]3c3ccc(Cl)cc3)cc12 | 138

Hi there! I need CC50 at 72 h for each item below, if you can.
1. CC(C)[C@H](CO)Nc1nc(Nc2ccc(C(=O)O)c(Cl)c2)c2ncn(C(C)C)c2n1
2. CN1CC[C@H](c2c(O)cc(O)c3c(=O)cc(-c4ccccc4Cl)oc23)[C@H](O)C1

73.5
0.16

Measured values drawn from paper PMC10459710 for this set.
